Data credit: patent US20030180744

Target or system: T1, KGF (hKGF) (Homo sapiens, UniProt P21781 P21781:32-194)
T1 sequence: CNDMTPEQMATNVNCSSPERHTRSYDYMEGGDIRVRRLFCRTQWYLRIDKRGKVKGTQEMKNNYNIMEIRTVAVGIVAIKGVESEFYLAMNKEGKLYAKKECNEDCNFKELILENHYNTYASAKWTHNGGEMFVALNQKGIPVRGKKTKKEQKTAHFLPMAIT
Method summary: filter; DPBS, 37 C
Assay setup: tags: Upstate Biotechnology; label: 32P
Readout label: Kd (nM)

7F (ssRNA, 2'-F pyrimidines) RNA: GGGAGGACGAUGCGGCGGGUACUCUUCGCCAGCUCCUCCAAGCGCGACCUGUGCCCAGACGACUCGCCCGA : 3.69
45F (ssRNA, 2'-F pyrimidines) RNA: GGGAGGACGAUGCGGGUCGUAUUCAUCUCCUUGUUCUGUUUCGUUGCACCUGGCCCAGACGACUCGCCCGA : 4.7
6N (ssRNA, 2'-NH2 pyrimidines) RNA: GGGAGGACGAUGCGGGCAGGGAGCAAUGAACUCAAGUCAAGCCGGUGCACGUGGGCAGACGACUCGCCCGA : 0.71
